# credit: patent US20110207726A1

- target.or.system: Human liver cathepsin B (Homo sapiens)
- Construct: Human liver cathepsin B (Calbiochem 219362, 65 ng/mL); purchased Calbiochem 219362; host or cells: human liver
- assay.overview: Cathepsin B assay, IC50 determination
- Assay type: biochemical
- condition.description: Table 1; read-out: IC50 Cat B
For each entry below, report its pIC50 value.
Quick note: pIC50 values are minus log10 of concentrations in mol/L.

Readout pIC50 for CCc1ccccc1NC(=O)CSC(=O)NNC(=O)[C@@H](NC(=O)OC(C)(C)C)C(C)OCc1ccccc1 (stereo partly shown) , test system Human liver cathepsin B (Homo sapiens), was 5.44

Readout pIC50 for `CC(C)C[C@H](NC(=O)OC(C)(C)C)C(=O)NNC(=O)SCC(=O)N1CCCc2ccccc21` , test system Human liver cathepsin B (Homo sapiens), was 5.57

Readout pIC50 for `CCc1ccccc1NC(=O)CSC(=O)NNC(=O)C[C@@H](NC(=O)OC(C)(C)C)C(C)C` , test system Human liver cathepsin B (Homo sapiens), was 4.94
